tested on: L1210 leukemia ip in BDF1 mice, survival T/C; test: NCI In Vivo Anticancer Drug Screen. Data for tumor model L1210 Leukemia (intraperitoneal) in B6D2F1 (BDF1) mice; details: endpoint: mean survival time; dose: 400.0 mg/kg/injection; schedule: Q01DX009 (ip); vehicle: saline sonified
Inconclusive results and toxic doses are left out. Rule as the data show it: active = T/C of 150% or more; inactive = T/C below 125%.
Valid outcomes are listed here; reply with one: 1 (active), 0 (inactive)

**Query** Could you check what this test reported for O=C(O)C1CCCC2C(O)CCC(=O)C12 (stereo not given) ?
**Result** 0

**Query** Could you check what this test reported for OC12CCCC3CCCC(CCC1)C32 (stereo not given) ?
**Result** 0

**Query** Could you check what this test reported for CCCNC(C)(C)C(SS)c1ccc(Cl)cc1 (stereo not given) ?
**Result** 0

**Query** Could you check what this test reported for C/C(=N\Nc1ccc([N+](=O)[O-])cc1[N+](=O)[O-])C(F)(F)F ?
**Result** 0

# next compound below
**Query** Could you check what this test reported for COc1cc2c(c(OC)c1OC)-c1cc(I)c(O)cc1[C@@H](NC(C)=O)CC2 ?
**Result** 1

----------
In this section, each of the compounds is paired with its reported T/C.
test system: L1210 leukemia ip in BDF1 mice, survival T/C; assay: NCI In Vivo Anticancer Drug Screen. Data for tumor model L1210 Leukemia (intraperitoneal) in B6D2F1 (BDF1) mice; conditions: endpoint: mean survival time; dose: 50.0 mg/kg/injection; schedule: Q01DX001 (ip); vehicle: saline with Tween-80; higher = longer survival
Inconclusive results and toxic doses are left out.

# annotated cases, reported T/C shown
Lab note: Cn1c(=O)n(O)c(=O)c2ccccc21 gave T/C of 96 % of control

Lab note: CC(C)(C)C1=C(C(C)(C)C)CS(=O)(=O)C1 gave T/C of 100 % of control

Lab note: Cc1nc(N)[nH]c(=O)c1CCCNC(=O)c1ccc(C(=O)O)cc1 gave T/C of 97 % of control

Lab note: Cn1c(-c2ccccc2)nc2c(N)ncnc21 gave T/C of 90 % of control

Lab note: CSCC1OC(n2cnc3c(N)ncnc32)C(O)C1O (stereo unspecified) gave T/C of 96 % of control

Further cases:
Lab note: CN(C)c1nc(N)c(N)c(N)n1 gave T/C of 107 % of control

----------
tested on: L1210 leukemia ip in BDF1 mice, survival T/C; test: NCI In Vivo Anticancer Drug Screen. Data for tumor model L1210 Leukemia (intraperitoneal) in B6D2F1 (BDF1) mice; details: endpoint: mean survival time; dose: 200.0 mg/kg/injection; schedule: Q04DX002 (ip); vehicle: saline with Tween-80; higher = longer survival
Inconclusive results and toxic doses are left out.
METRIC_NAME: T/C

# annotated cases, reported T/C shown
Lab note: N#C/C(=C\C1CC(Br)CC(Br)C1O)C1CCC([N+](=O)[O-])CC1 (stereo unspecified) gave T/C of 90 % of control

Lab note: Cc1cccc[c]1[Sb]([c]1ccccc1C)[c]1ccccc1C gave T/C of 96 % of control

Lab note: CCCCC(CC)(CC)OC(=O)c1ccc([N+](=O)[O-])cc1 gave T/C of 106 % of control

Lab note: CCC(Cl)(Cl)[N+](=O)[O-] gave T/C of 98 % of control

Lab note: O=C1CC(N2CCCCC2)C(=O)N1c1ccccc1 (stereo unspecified) gave T/C of 95 % of control

From here, focus on the item given below.
Lab note: COC(=O)c1c2cccccc-2c(C(=O)OC)c1N gave T/C of 91 % of control

----------
test system: L1210 leukemia ip in BDF1 mice, survival T/C; test: NCI In Vivo Anticancer Drug Screen. Data for tumor model L1210 Leukemia (intraperitoneal) in B6D2F1 (BDF1) mice; settings: endpoint: mean survival time; dose: 75.0 mg/kg/injection; schedule: Q01DX001 (ip); vehicle: other; higher = longer survival
Toxic doses and inconclusive results are not listed.
METRIC_NAME: T/C

# annotated cases, reported T/C shown
Cc1ccnc2c([N+](=O)[O-])cccc12 tested on L1210 leukemia ip in BDF1 mice, survival T/C gave T/C: 102 % of control

CCCCCCC(C)N(CC)CCOC(=O)c1ccc(N)cc1 (configuration not stated) tested on L1210 leukemia ip in BDF1 mice, survival T/C gave T/C: 94 % of control

S=C(Nc1ccc(Br)cc1)NC1CCCCC1 tested on L1210 leukemia ip in BDF1 mice, survival T/C gave T/C: 88 % of control

From here, focus on the item given below.
C/C=C(\CC)C1(CC)C(=O)NC(=O)NC1=O tested on L1210 leukemia ip in BDF1 mice, survival T/C gave T/C: 97 % of control

----------
system: L1210 leukemia ip in BDF1 mice, survival T/C; assay: NCI In Vivo Anticancer Drug Screen. Data for tumor model L1210 Leukemia (intraperitoneal) in B6D2F1 (BDF1) mice; conditions: endpoint: mean survival time; dose: 50.0 mg/kg/injection; schedule: Q01DX001 (ip); vehicle: Klucel (hydroxypropylcellulose) (HPC); higher = longer survival
Inconclusive results and toxic doses are left out.
METRIC_NAME: T/C

O=S(=O)(Cl)c1ccccc1Cl tested on L1210 leukemia ip in BDF1 mice, survival T/C gave T/C: 101 % of control

Further cases:
Cc1nc(N)[nH]c(=O)c1CCCNC(=O)CCl (tested in a mixture with another compound) tested on L1210 leukemia ip in BDF1 mice, survival T/C gave T/C: 114 % of control

CC1(CCCc2ccc(N)cc2)N=C(N)N=C(N)N1c1ccccc1 (stereo unspecified) tested on L1210 leukemia ip in BDF1 mice, survival T/C gave T/C: 106 % of control

N#CC1SCCCS1 tested on L1210 leukemia ip in BDF1 mice, survival T/C gave T/C: 104 % of control

Nc1nc(N)c(-c2ccc(Cl)c(Cl)c2)c(COc2ccc(CNS(=O)(=O)c3ccc(S(=O)(=O)F)cc3)cc2Cl)n1 tested on L1210 leukemia ip in BDF1 mice, survival T/C gave T/C: 94 % of control

O=C1C(NC2CCCCC2)=C(c2ccccc2)c2ccccc21 tested on L1210 leukemia ip in BDF1 mice, survival T/C gave T/C: 94 % of control

----------
test system: L1210 leukemia ip in BDF1 mice, survival T/C; assay: NCI In Vivo Anticancer Drug Screen. Data for tumor model L1210 Leukemia (intraperitoneal) in B6D2F1 (BDF1) mice; conditions: endpoint: mean survival time; dose: 200.0 mg/kg/injection; schedule: Q01DX001 (ip); vehicle: saline
Toxic doses and inconclusive results are not listed. Rule as the data show it: active = T/C of 150% or more; inactive = T/C below 125%.
Valid outcomes are listed here; reply with one: t = active, f = inactive

**Query** Could you check what this test reported for C/C(CCO)=N\NC(N)=S ?
**Result** f

**Query** Could you check what this test reported for Cc1ccc(S(=O)(=O)OC2CCCC3CCCCC32)cc1 (configuration not stated) ?
**Result** f

**Query** Could you check what this test reported for NC(=O)N=C(N)N ?
**Result** f

**Query** Could you check what this test reported for NC(=O)c1ncn(C2CCCC2O)c1N (configuration not stated) ?
**Result** f

**Query** Could you check what this test reported for CCCCCCCCCCCCNC(=O)Nc1ccc(Cl)c(Cl)c1 ?
**Result** f

**Query** Could you check what this test reported for N/N=C\c1cnnc2ccccc12 ?
**Result** f

**Query** Could you check what this test reported for O=C(c1ccccc1)C1C(=O)N(c2ccccc2)C(=O)N1c1ccccc1 (configuration not stated) ?
**Result** f

**Query** Could you check what this test reported for CC(=O)CC(=O)Nc1cccc(C)n1 ?
**Result** f

Further cases:
**Query** Could you check what this test reported for CC1(C)OC2OC(CO)C(O)C2O1 (configuration not stated) ?
**Result** f

**Query** Could you check what this test reported for O=c1[nH]nc(SCc2ccccc2)c(=O)[nH]1 ?
**Result** f

**Query** Could you check what this test reported for CCN(CC)c1ccc(N=C2C=C(C(=O)Nc3ccc(S(C)(=O)=O)cc3)C(=O)c3ccccc32)c(C)c1 ?
**Result** f

**Query** Could you check what this test reported for O=S(=O)(O)F ?
**Result** f

**Query** Could you check what this test reported for Cn1cc[nH]c1=S ?
**Result** f

**Query** Could you check what this test reported for Nc1nc2c([nH]c(=O)n2C2OC(CO)C(O)C2O)c(=O)n1N (configuration not stated) ?
**Result** f

**Query** Could you check what this test reported for S=c1nc[nH]c2nc(N=Nc3cc(Cl)ccc3Cl)[nH]c12 ?
**Result** f

**Query** Could you check what this test reported for COc1cc(C)ccc1C1OC(=O)c2c1ccc(OC)c2OC (configuration not stated) ?
**Result** f

----------
tested on: L1210 leukemia ip in BDF1 mice, survival T/C; assay: NCI In Vivo Anticancer Drug Screen. Data for tumor model L1210 Leukemia (intraperitoneal) in B6D2F1 (BDF1) mice; conditions: endpoint: mean survival time; dose: 25.0 mg/kg/injection; schedule: Q01DX009 (ip); vehicle: Klucel (hydroxypropylcellulose) (HPC); higher = longer survival
Toxic doses and inconclusive results are not listed.
In this section, each of the compounds is paired with its reported T/C.

# annotated cases, reported T/C shown
NNS(=O)(=O)c1ccc([N+](=O)[O-])cc1 tested on L1210 leukemia ip in BDF1 mice, survival T/C gave T/C: 106 % of control

Nc1nc(N)nc(CCP(CCc2nc(N)nc(N)n2)CCc2nc(N)nc(N)n2)n1 tested on L1210 leukemia ip in BDF1 mice, survival T/C gave T/C: 110 % of control

CCNc1ncnc2c1c(C(N)=S)cn2C1OC(CO)C(O)C1O (configuration not stated) tested on L1210 leukemia ip in BDF1 mice, survival T/C gave T/C: 91 % of control

Further cases:
NC1(C(=O)NCC(=O)O)C2CC3CC(C2)CC1C3 (configuration not stated) tested on L1210 leukemia ip in BDF1 mice, survival T/C gave T/C: 94 % of control

S=P(NCCNP(=S)(N1CC1)N1CC1)(N1CC1)N1CC1 tested on L1210 leukemia ip in BDF1 mice, survival T/C gave T/C: 120 % of control

N#Cc1nc2ccccc2nc1C#N tested on L1210 leukemia ip in BDF1 mice, survival T/C gave T/C: 102 % of control

ClN=C(c1ccccc1)c1ccccc1 tested on L1210 leukemia ip in BDF1 mice, survival T/C gave T/C: 102 % of control

Taken from PubChem BioAssay AID248.
